Where do the numbers come from? From patent US20240270821A1.

Assayed Target: hGLP-1R (Homo sapiens)
Sequence (P43220 24-463): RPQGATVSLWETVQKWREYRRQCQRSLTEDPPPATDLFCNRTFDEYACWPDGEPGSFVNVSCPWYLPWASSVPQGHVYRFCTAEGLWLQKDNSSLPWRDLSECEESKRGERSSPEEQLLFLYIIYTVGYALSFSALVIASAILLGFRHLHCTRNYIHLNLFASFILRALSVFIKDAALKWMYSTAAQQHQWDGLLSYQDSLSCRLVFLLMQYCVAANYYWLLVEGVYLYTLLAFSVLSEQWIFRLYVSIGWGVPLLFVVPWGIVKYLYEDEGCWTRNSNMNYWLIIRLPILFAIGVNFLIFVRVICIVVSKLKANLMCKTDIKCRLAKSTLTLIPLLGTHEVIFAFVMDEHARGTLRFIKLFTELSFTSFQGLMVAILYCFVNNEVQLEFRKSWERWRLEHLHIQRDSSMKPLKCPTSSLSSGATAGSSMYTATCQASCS
Protocol Text: Functional cAMP activity in the presence of 1% HSA
Format: cell-based
Applied Conditions: read-out: cAMP Rel EC50, hGLP-1R
Starred links: 1 amine or outer side, 2 acyl side, 3 side chain; linkers in the order of their positions; H or OH if unused. Non-standard residues stand in square brackets, D forms with d. Groups on a side chain read outwards from the residue. No end group written: not given here. *: point of attachment. C18 diacid = O=C(O)CCCCCCCCCCCCCCCCC(=O)*; αMePhe(2-F) = C[C@](N)(Cc1ccccc1F)C(=O)O; γGlu = O=C(O)[C@H](CCC(=O)[*:2])N[*:1]; αMe4Pal = C[C@](N)(Cc1ccncc1)C(=O)O; αMeY = C[C@](N)(Cc1ccc(O)cc1)C(=O)O; 4Pal = N[C@@H](Cc1ccncc1)C(=O)O; αMeL = CC(C)C[C@](C)(N)C(=O)O; Orn = NCCC[C@H](N)C(=O)O; AEEA = NCCOCCOCC(=O)O; Aib = CC(C)(N)C(=O)O
Reported values of EC50 for individual entries
All answers are understood in nM, so give the number only.

Reported EC50 of H-Y[Aib]QGTFTSDFS[Orn][αMeL]LDKK([AEEA-γGlu-C18 diacid])AQ[Aib]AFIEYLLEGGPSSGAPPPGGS[AEEA]-NH2 [Example 66] : 329

Reported EC50 of H-Y[Aib]QGTFTSD[4Pal]S[Orn][αMeL]LDKK([γGlu-γGlu-C18 diacid])AQ[αMe4Pal]AFIEYLIAGGPSSGEPPPSGE-NH2 [Example 979] : 257

Reported EC50 of Y[Aib]QGT[αMePhe(2-F)]TSD[4Pal]SI[αMeL]LD[Orn]K([AEEA-AEEA-γGlu-C18 diacid])AQ[αMe4Pal]EFI[dE][αMeY]LLEGGPSSGAPPPSGE-NH2 [Example 613] : 81.6

----------
Assayed Target: hGIPR (Homo sapiens, UniProt P48546)
Sequence (P48546 22-466): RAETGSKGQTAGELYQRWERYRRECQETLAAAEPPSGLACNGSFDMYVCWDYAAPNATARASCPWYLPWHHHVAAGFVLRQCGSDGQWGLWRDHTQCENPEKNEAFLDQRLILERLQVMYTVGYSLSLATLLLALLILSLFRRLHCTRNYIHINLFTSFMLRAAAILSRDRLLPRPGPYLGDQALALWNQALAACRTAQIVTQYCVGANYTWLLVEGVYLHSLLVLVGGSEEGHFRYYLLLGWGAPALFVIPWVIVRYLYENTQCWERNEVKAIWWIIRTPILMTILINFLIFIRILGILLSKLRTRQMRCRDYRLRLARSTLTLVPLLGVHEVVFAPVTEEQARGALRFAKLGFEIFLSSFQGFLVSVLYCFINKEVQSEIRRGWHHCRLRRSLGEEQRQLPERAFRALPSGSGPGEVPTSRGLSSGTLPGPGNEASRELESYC
Protocol Text: Functional cAMP activation in the presence of 0.1% casein (no HSA);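 on Relative cAMP EC50, hGIPR: intracellular cAMP rise after 30 min at 37 °C read by HTRF against a standard curve, scaled between buffer alone (0%) and top control ligand concentration (100%), four-parameter fit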
Format: cell-based
Applied Conditions: in the presence of 0.1% casein (no HSA); geometric mean; read-out: Relative cAMP EC50, hGIPR
Starred links: 1 amine or outer side, 2 acyl side, 3 side chain; linkers in the order of their positions; H or OH if unused. Non-standard residues stand in square brackets, D forms with d. Groups on a side chain read outwards from the residue. No end group written: not given here. *: point of attachment. C18 diacid = O=C(O)CCCCCCCCCCCCCCCCC(=O)*; αMePhe(2-F) = C[C@](N)(Cc1ccccc1F)C(=O)O; γGlu = O=C(O)[C@H](CCC(=O)[*:2])N[*:1]; αMe4Pal = C[C@](N)(Cc1ccncc1)C(=O)O; αMeY = C[C@](N)(Cc1ccc(O)cc1)C(=O)O; 4Pal = N[C@@H](Cc1ccncc1)C(=O)O; αMeL = CC(C)C[C@](C)(N)C(=O)O; αMeS = C[C@](N)(CO)C(=O)O; Orn = NCCC[C@H](N)C(=O)O; AEEA = NCCOCCOCC(=O)O; Aib = CC(C)(N)C(=O)O
Readout: EC50 (nM)
All answers are understood in nM, so give the number only.

Substance | Numeric Value
H-Y[Aib]QGTFTSD[4Pal]SK[αMeL]LDKK([AEEA-γGlu-C18 diacid])AQ[Aib]AFIEYLIE[dA]GESSGEPPPSGS-NH2 [Example 284] | 0.347
H-Y[Aib]QGT[αMePhe(2-F)]TSD[4Pal][αMeS]I[αMeL]LD[Orn]K([γGlu-γGlu-C18 diacid])AQ[αMe4Pal]EFI[dE][αMeY]LVEGGPSSGAPPPSGE-NH2 [Example 1160] | 0.00773
H-Y[Aib]QGTFTSDFSK[αMeL]LDKK([AEEA-γGlu-C18 diacid])AQ[Aib]AFIEYLIEGGESSGAPPPSGS-NH2 [Example 215] | 0.418

Reported EC50 of H-Y[Aib]QGT[αMePhe(2-F)]TSD[4Pal][αMeS]I[αMeL]LD[Orn]K([AEEA-γGlu-C18 diacid])AQ[αMe4Pal]EFI[dE][αMeY]LIEGGPSSGEPPPGGE-NH2 [Example 1145] : 0.00689

Reported EC50 of H-Y[Aib]QGTFTSDFS[Orn][αMeL]LDKK([AEEA-γGlu-C18 diacid])AQ[Aib]AFIE[αMeY]LIEGGPSSGAPPPSGS-NH2 [Example 839] : 0.221

Reported EC50 of Y[Aib]QGTFTSD[4Pal]SQ[αMeL]LD[Orn]K([γGlu-γGlu-C18 diacid])AQ[αMe4Pal]QFIE[αMeY]LIEGGPSSGEPPPSGSEE-NH2 [Example 1026] : 0.308

----------
Assayed Target: hGLP-1R (Homo sapiens)
Protocol Text: Functional cAMP activation in the presence of 0.1% casein (no HSA);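 further: intracellular cAMP rise after 30 min at 37 °C read by HTRF, normalized between buffer only (0%) and maximal control ligand (100%), four-parameter variable-slope fit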
Format: cell-based
Applied Conditions: in the presence of 0.1% casein (no HSA); geometric mean; read-out: Relative cAMP EC50, hGLP-1R
pEC50: −log10 of the molar value. Starred links: 1 amine or outer side, 2 acyl side, 3 side chain; linkers in the order of their positions; H or OH if unused. Non-standard residues stand in square brackets, D forms with d. Groups on a side chain read outwards from the residue. No end group written: not given here. *: point of attachment. C20 diacid = O=C(O)CCCCCCCCCCCCCCCCCCC(=O)*; C18 diacid = O=C(O)CCCCCCCCCCCCCCCCC(=O)*; αMePhe(2-F) = C[C@](N)(Cc1ccccc1F)C(=O)O; γGlu = O=C(O)[C@H](CCC(=O)[*:2])N[*:1]; αMe4Pal = C[C@](N)(Cc1ccncc1)C(=O)O; αMeY = C[C@](N)(Cc1ccc(O)cc1)C(=O)O; 4Pal = N[C@@H](Cc1ccncc1)C(=O)O; αMeL = CC(C)C[C@](C)(N)C(=O)O; αMeS = C[C@](N)(CO)C(=O)O; Orn = NCCC[C@H](N)C(=O)O; AEEA = NCCOCCOCC(=O)O; Aib = CC(C)(N)C(=O)O
Please mark rule met if the recorded pEC50 is equal to or greater than 9, and rule not met if it falls below.

Example entries begin here.
Substance | Assayed Target | Classification
H-Y[Aib]QGTFTSD[4Pal]S[Orn][αMeL]LDKK([γGlu-γGlu-C18 diacid])AQ[αMe4Pal]AFIEYLIAGGPSSGEPPPSGTEEE-NH2 [Example 982] | hGLP-1R (Homo sapiens) | rule not met
H-Y[Aib]QGTFTSDFS[Orn][αMeL]LDKK([AEEA-γGlu-C20 diacid])AQ[Aib]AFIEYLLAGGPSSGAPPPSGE-NH2 [Example 82] | hGLP-1R (Homo sapiens) | rule not met

Let's switch to this substance now.
Is reported pEC50 greater than or equal to 9 here: Y[Aib]QGT[αMePhe(2-F)]TSD[4Pal][αMeS]I[αMeL]LD[Orn]K([γGlu-γGlu-C18 diacid])AQ[αMe4Pal]EFI[dE][αMeY]LVEGGPSSGAPPPSGSE-NH2 [Example 1162]
rule met
